Where these numbers come from: ChEMBL document CHEMBL3301555

system: Plasmodium falciparum; test: MMV: Measure of pLDH activity as indication of parasite viability. Gametocytogenesis of 3D7 Plasmodium falciparum strain was induced in vitro and asexual parasites were depleted with N-acetylglucosamine. Gametocytes were treated with dihydroartemisinin, epoxomicin, methylene blue, primaquine, puromycin or chloroquine in 96-well plates and the pLDH activity was evaluated using a modified Makler protocol. Mosquito infectivity was measured by the standard membrane feeding assay.; assay type: functional; design: concentration or dose not given beside the values
observed-property: Growth Inhibition (%)
State just the number; it will be interpreted in %.

Example entries begin here.
Return value of Growth Inhibition for input `COc1ccc(-c2nc(N3CCN(C(=O)C4CCCCC4)CC3)c3c4c(sc3n2)CCCC4)cc1` , no commentary.
-0.9006

Return value of Growth Inhibition for input OC(CNC1CCCC1)Cn1c2ccccc2c2ccccc21 (stereo unspecified) , no commentary.
39.5038

Return value of Growth Inhibition for input `COc1cc2c(cc1OC)C1=NNC(=O)C1=NC(C)(C)C2` , no commentary.
35.8316

***
Return value of Growth Inhibition for input `O=c1c2c([nH]c3ccccc13)CCCC2` , no commentary.
19.1396

Return value of Growth Inhibition for input `Cc1ccc(Cl)cc1N1CCN(CCCNC(=O)C2CCN(c3nc4ccccc4[nH]3)CC2)CC1` , no commentary.
21.502

Return value of Growth Inhibition for input `OCCNc1nc(Nc2ccc(Cl)c(Cl)c2)nc2ccccc12` , no commentary.
18.8816

====

system: Plasmodium falciparum; assay: MMV: Measure of pLDH activity as indication of parasite viability. Gametocytogenesis of 3D7 Plasmodium falciparum strain was induced in vitro and asexual parasites were depleted with N-acetylglucosamine. Gametocytes were treated with dihydroartemisinin, epoxomicin, methylene blue, primaquine, puromycin or chloroquine in 96-well plates and the pLDH activity was evaluated using a modified Makler protocol. Mosquito infectivity was measured by the standard membrane feeding assay.; format: functional; set-up: concentration or dose not given beside the values
observed-property: Growth Inhibition (%)
State just the number; it will be interpreted in %.

Example entries begin here.
// output Growth Inhibition; input `COc1ccc2sc(N(Cc3cccnc3)C(=O)c3ccc(C#N)cc3)nc2c1` ; system Plasmodium falciparum
-6.4226

// output Growth Inhibition; input `Cc1ccccc1OCCSc1nc2ccc(NC(=O)c3ccccc3)cc2s1` ; system Plasmodium falciparum
-3.751

// output Growth Inhibition; input `COc1ccccc1NC1=C(N2CCCCC2)C(=O)c2ccccc2C1=O` ; system Plasmodium falciparum
50.0502

// output Growth Inhibition; input `CN(C)c1ccc(N=Cc2ccc(N3CCOCC3)cc2)cc1` ; system Plasmodium falciparum
78.9978

// output Growth Inhibition; input `Br.Cc1ccc(C)c(-c2csc(Nc3ccc(C)c(C)c3)n2)c1` ; system Plasmodium falciparum
-6.2508

// output Growth Inhibition; input Oc1ccccc1CN1CCC2(CCCN(Cc3ccccc3F)C2)C1 (centres undefined) ; system Plasmodium falciparum
46.3042

// output Growth Inhibition; input `COc1cccc(C=Cc2nc(=O)c3ccccc3o2)c1OC` ; system Plasmodium falciparum
2.1344

// output Growth Inhibition; input COc1ccc(C(O)(CCC(C)C)C(CN2CCOCC2)c2ccc(Cl)cc2)cc1.Cl (centres undefined) ; system Plasmodium falciparum
9.238

// output Growth Inhibition; input `CC(C)(C)C(=O)Nc1ccc(C(=O)Nc2cccc(-c3nc4ccccc4[nH]3)c2)cc1` ; system Plasmodium falciparum
13.3516

// output Growth Inhibition; input `COc1ccccc1C(=O)ON=C(N)Cc1cccc2ccccc12` ; system Plasmodium falciparum
8.274

***
// output Growth Inhibition; input `CN(C)c1ccc(C=Cc2nc(=O)c3ccccc3o2)cc1` ; system Plasmodium falciparum
1.8448

// output Growth Inhibition; input `c1ccc(/C2=N/c3ccccc3/N=C(/c3ccccc3)c3ccccc32)cc1` ; system Plasmodium falciparum
14.1312

====

test system: Plasmodium falciparum; experiment: MMV: Measure of pLDH activity as indication of parasite viability. Gametocytogenesis of 3D7 Plasmodium falciparum strain was induced in vitro and asexual parasites were depleted with N-acetylglucosamine. Gametocytes were treated with dihydroartemisinin, epoxomicin, methylene blue, primaquine, puromycin or chloroquine in 96-well plates and the pLDH activity was evaluated using a modified Makler protocol. Mosquito infectivity was measured by the standard membrane feeding assay.; format: functional; set-up: concentration or dose not given beside the values
Consider the following partition of reported Growth Inhibition into named classes: b0 = under 10%, b1 = from 10% up to 20%, b2 = 20% and over

Bin? `CCCCCCc1cc2cc(-c3nc4ccccc4[nH]3)c(=Nc3ccccc3C)oc2cc1O`
b1

Bin? CCCCCn1c(=N)n(CC(O)COc2cccc(C)c2)c2ccccc21.Cl (stereo not given)
b2

Bin? `Nc1ccc(-c2nc3cc(Cc4ccc5[nH]c(-c6ccc(N)cc6)nc5c4)ccc3[nH]2)cc1`
b0

Bin? OC1=C2C(=Nc3ccccc3SC2c2ccccc2)c2ccccc21 (stereo not given)
b2

Bin? CC1CN(C(=O)c2sc3ccccc3c2Cl)CC(C)O1 (stereo not given)
b0

***
Bin? `FC(F)(F)c1ccc(Nc2nnnc3ccccc23)cc1`
b2

Bin? CCOc1cc2c(cc1OCC)C(c1cc(Cl)ccc1O)NCC2 (stereo not given)
b2

Bin? `CN1CCN(c2ccc(Nc3c4ccccc4nc4ccccc34)cc2)CC1`
b2

Bin? `CN1CCN(c2ncnc3c2[nH]c2ccc(Cl)cc23)CC1`
b0

Bin? `Oc1ccc(-c2nc(-c3ccc4oc5ccc(-c6[nH]c(-c7ccc(O)cc7)nc6-c6ccccc6)cc5c4c3)c(-c3ccccc3)[nH]2)cc1`
b2

Bin? `Cc1ccc(CN2CCC(C(=O)Nc3ccc(-c4cc5ccccc5[nH]4)cc3)CC2)o1`
b2

Bin? `CC(C)(C)c1ccc(C(=O)Nc2c3c(nn2-c2cccc(Cl)c2)CSC3)cc1`
b0

====

system: Plasmodium falciparum; test: MMV: Measure of pLDH activity as indication of parasite viability. Gametocytogenesis of 3D7 Plasmodium falciparum strain was induced in vitro and asexual parasites were depleted with N-acetylglucosamine. Gametocytes were treated with dihydroartemisinin, epoxomicin, methylene blue, primaquine, puromycin or chloroquine in 96-well plates and the pLDH activity was evaluated using a modified Makler protocol. Mosquito infectivity was measured by the standard membrane feeding assay.; format: functional; parameters: concentration or dose not given beside the values
observed-property: Growth Inhibition (%)
State just the number; it will be interpreted in %.

Return value of Growth Inhibition for input `CCOc1ccc(-c2nonc2NC(=O)c2cccc(C)c2)cc1OCC` , no commentary.
30.014

--- query ---
Return value of Growth Inhibition for input `CCOC(=O)c1cn(CC)c2cc(N(C)CCc3ccc(OC)c(OC)c3)c(F)cc2c1=O` , no commentary.
25.5006

====

Measured Growth Inhibition, listed per entry.
system: Plasmodium falciparum; test: MMV: Measure of pLDH activity as indication of parasite viability. Gametocytogenesis of 3D7 Plasmodium falciparum strain was induced in vitro and asexual parasites were depleted with N-acetylglucosamine. Gametocytes were treated with dihydroartemisinin, epoxomicin, methylene blue, primaquine, puromycin or chloroquine in 96-well plates and the pLDH activity was evaluated using a modified Makler protocol. Mosquito infectivity was measured by the standard membrane feeding assay.; type: functional; set-up: concentration or dose not given beside the values
State just the number; it will be interpreted in %.

Example entries begin here.
Return value of Growth Inhibition for input O=C(NCC1Cc2cccc(-c3ccncc3)c2O1)c1csc2c1CCCC2 (stereo unspecified) , no commentary.
15.175

Return value of Growth Inhibition for input `Oc1ccc(Cl)cc1CNc1nc2ccccc2[nH]1` , no commentary.
5.249

Return value of Growth Inhibition for input `O=C(CSc1ccc2nnc(-c3cccc(F)c3)n2n1)Nc1ccc2c(c1)OCO2` , no commentary.
8.1908

Return value of Growth Inhibition for input `FC(F)(F)c1cccc(Nc2nc(-c3ccccc3)nc3ncccc23)c1` , no commentary.
9.5538

Return value of Growth Inhibition for input `Cc1cc(Nc2ccc(Cl)cc2)n2nc(C(F)(F)F)nc2n1` , no commentary.
7.7522

Return value of Growth Inhibition for input COc1ccc(CCN2C(=O)c3[nH]nc(-c4cc(Cl)c(C)cc4O)c3C2c2ccccc2F)cc1 (stereo unspecified) , no commentary.
16.338

***
Return value of Growth Inhibition for input `Cc1cccc(Nc2nc(N)c3ccccc3n2)c1.Cl` , no commentary.
-0.3732

Return value of Growth Inhibition for input `COc1cc(OC)c(N(C)C(=O)c2cc3c(s2)-c2ccccc2S(=O)(=O)C3)cc1Cl` , no commentary.
6.301

Return value of Growth Inhibition for input `CCCOCc1cc(CN2CCN(c3cccc(Cl)c3)CC2)c(O)c2ncccc12` , no commentary.
80.5

Return value of Growth Inhibition for input `CCOC(=O)c1c[nH]c2c(CC)cccc2c1=O` , no commentary.
3.164

Return value of Growth Inhibition for input `FC(F)(F)c1cccc(Nc2nc3ccccc3nc2Nc2cccc(C(F)(F)F)c2)c1` , no commentary.
23.1188

====

test system: Plasmodium falciparum; assay: MMV: Measure of pLDH activity as indication of parasite viability. Gametocytogenesis of 3D7 Plasmodium falciparum strain was induced in vitro and asexual parasites were depleted with N-acetylglucosamine. Gametocytes were treated with dihydroartemisinin, epoxomicin, methylene blue, primaquine, puromycin or chloroquine in 96-well plates and the pLDH activity was evaluated using a modified Makler protocol. Mosquito infectivity was measured by the standard membrane feeding assay.; assay type: functional; parameters: concentration or dose not given beside the values
Consider the following partition of reported Growth Inhibition into named classes: low value: < 10%; medium value: ≥ 10% and < 30%; high value: ≥ 30%

Bin? `COc1ccc(-c2cc(=O)oc3c4c(ccc23)OCN(Cc2ccc(F)cc2)C4)cc1`
medium value

Bin? `COc1ccc2nc(C)cc(Nc3ccccc3O)c2c1`
medium value

Bin? `CC1=C(CC(=O)c2cccc([N+](=O)[O-])c2)C(=O)c2ccccc2C1=O`
high value

***
Bin? `CC(=O)NCCc1nc2ccccc2n1Cc1ccc(C(C)C)cc1`
medium value

Bin? `COc1cc2cc(C(=O)Nc3ccccc3)c(N)nc2cc1OC`
low value

Bin? `CCOC(=O)c1cnc2ccc(CC)cc2c1O`
high value

Bin? `CCOc1ccc(N2C(N)=NC(N)=NC2(C)C)cc1.Cl`
low value

Bin? `O=C(Nc1ccc(CN2CCOCC2)cc1)c1ccc(-c2ccc(Br)cc2)o1`
medium value

Bin? O=C(Cc1ccccc1)NC(c1ccc(Cl)cc1)c1c(O)ccc2ccccc12 (stereo unspecified)
medium value

Bin? COc1ccc(N2CCN(C(CNC(=O)C3CCCCC3)c3ccc4c(c3)OCO4)CC2)cc1 (stereo unspecified)
medium value

Bin? `c1ccc(Cn2c(N=Nc3c(Nc4ccccc4)ccc4ccccc34)nc3ccccc32)cc1`
medium value

Bin? `COc1ccc(-c2cc3c(SCC(=O)Nc4cc(C(F)(F)F)ccc4Cl)nccn3n2)cc1`
low value

Bin? `CC(C)OCc1cc(CN2CCN(c3cccc(Cl)c3)CC2)c(O)c2ncccc12`
high value

Bin? CCCCCC(=O)N1c2ccccc2N=C2CC(c3ccc(OC)c(OC)c3)CC(O)=C2C1c1ccc(C(F)(F)F)cc1 (stereo unspecified)
high value

Bin? COc1ccc(C2=C(c3ccc(OC)cc3)C3(c4ccccc4)C(=O)C2(c2ccccc2)C2C(=O)N(c4ccc(C)cc4)C(=O)C23)cc1 (stereo unspecified)
low value

Bin? Cc1ccnc(NC(c2cccc(OCc3ccccc3)c2)c2ccc3cccnc3c2O)c1 (stereo unspecified)
low value

Bin? `COc1ccc(/C=C2/SC(=Nc3ccccc3)NC2=O)cc1`
high value

Bin? CC(C)(C)CC(C)(C)NCC(O)COc1ccc(Cl)cc1Cl (stereo unspecified)
high value

Bin? CCCCCCC(O)(c1ccc(F)cc1)C(CN1CCOCC1)c1ccccc1.Cl (stereo unspecified)
low value

Bin? `Cc1cc(N(C)C)nc(Nc2ccc(NC(=O)Nc3ccccc3)cc2)n1`
medium value

Bin? `COc1ccc(CN2CCN(Cc3ccccc3)CC2)c(O)c1`
medium value
